# maps each entry to its surface tension liquid-gas
# experimentDescription: cn = amount concentration of the nth substance listed, in mol/dm3
# condition: 303 K, Ring tensiometer, c1 = 0.0001
Numbers after ± are expanded uncertainties.
testReadout: surface tension liquid-gas

In [3]: df
Out[3]:
                                   compound    reportedresult
0  CCCCCCCCCCCCCCCC[n+]1ccccc1.[Br-] [1-hexadecylpyridinium bromide] + O   61.8 ± 1.2 mN/m
1  CCCCCCCCCCCC[N+](C)(C)Cc1ccccc1.[Br-] [benzenemethanaminium, N-dodecyl-N,N-dimethyl, bromide] + O  63.66 ± 1.2 mN/m
2  CCCCCCCCCCCC[N+](C)(C)CC.[Br-] [dodecyl ethyl dimethylammonium bromide] + O  69.94 ± 1.3 mN/m
3  CCCCCCCCCCCCOS(=O)(=O)[O-].[Na+] [sodium dodecyl sulfate] + O  70.01 ± 1.3 mN/m
4  CCCCCCCCCCCCCCCC[N+](C)(C)C.[Br-] [N,N,N-trimethyl-1-hexadecanaminium bromide] + O  65.32 ± 1.3 mN/m
5  CCCCCCCCCCCCCCCCS(=O)(=O)[O-].[Na+] [sodium hexadecylsulfonate] + O  65.54 ± 1.3 mN/m
6  CCCCCCCCCCCCN(C)CC(=O)[O-].[Na+] [sodium laurylsarcosinate] + O  65.33 ± 1.3 mN/m
